# Cond: Crystal; DTA
Overview of reported Normal melting temperature across a group of compounds:
Test readout: Normal melting temperature (°C)

Brc1ccc(Br)cc1 | 84.6
Brc1ccc(Br)c(Br)c1 | 44
Brc1cc(Br)c(Br)cc1Br | 181.4
Brc1c(Br)c(Br)c(Br)c(Br)c1Br | 325.6

----------
# Assay: Molar enthalpy of transition or fusion
# Cond: Crystal; DSC
Measured Molar enthalpy of transition or fusion, listed per entry for reference.
Test readout: Molar enthalpy of transition or fusion

Brc1c(Br)c(Br)c(Br)c(Br)c1Br [hexabromobenzene] | 5.88 kcal/mol
Brc1ccc(Br)c(Br)c1 [1,2,4-tribromobenzene] | 4.28 kcal/mol
Brc1cc(Br)c(Br)cc1Br [1,2,4,5-tetrabromobenzene] | 5.83 kcal/mol
Brc1ccc(Br)cc1 [1,4-dibromobenzene] | 4.45 kcal/mol
